- target: hOT7T175 (Homo sapiens, UniProt Q969F8, L364H)
- Sequence (Q969F8 whole entry L364H): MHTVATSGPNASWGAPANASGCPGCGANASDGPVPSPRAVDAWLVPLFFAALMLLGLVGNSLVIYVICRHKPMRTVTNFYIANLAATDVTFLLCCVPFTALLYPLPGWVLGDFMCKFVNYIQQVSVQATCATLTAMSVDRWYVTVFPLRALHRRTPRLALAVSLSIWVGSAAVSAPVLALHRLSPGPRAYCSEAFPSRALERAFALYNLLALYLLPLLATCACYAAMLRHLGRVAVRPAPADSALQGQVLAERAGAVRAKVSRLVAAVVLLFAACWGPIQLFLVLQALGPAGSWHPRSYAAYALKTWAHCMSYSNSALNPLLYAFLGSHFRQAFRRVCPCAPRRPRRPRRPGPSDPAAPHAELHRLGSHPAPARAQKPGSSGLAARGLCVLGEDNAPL
- protocol.text: hOT7T175 receptor binding activity: binding inhibition of Cy-5-labeled metastin (40-54) on hOT7T175-expressed CHO cells
Square brackets hold non-standard residues; d marks the D form. Peptide text beside a SMILES is read from it. * marks the point of attachment. Diphenylacetyl = O=C(C(c1ccccc1)c1ccccc1)*; Arg(Me) = CNC(=N)NCCC[C@H](N)C(=O)O; X3 = NC(=S)[C@H](Cc1ccccc1)N*; X6 = O=C(c1c[nH]c2ccccc12)*; Hexanoyl = CCCCCC(=O)*; azaGly = NNC(=O)O
assay.metric: IC50

Record excerpt, results attached:
INSERT INTO measurements (compound, obs_value) VALUES
  ('CNC(=N)NCCC[C@H](NC(=O)[C@H](CC(C)C)NC(=O)NNC(=O)[C@H](Cc1ccccc1)NC(=O)[C@H](CO)NC(=O)[C@H](CC(N)=O)NC(=O)c1c[nH]c2ccccc12)C(=O)N[C@@H](Cc1ccccc1)C(N)=O [Compound No. 265] (X6-NSF[azaGly]L[Arg(Me)]F-NH2)', '0.095 µM'),
  ('CCCCCC(=O)N[C@@H](CC(N)=O)C(=O)N[C@@H](CO)C(=O)N[C@@H](Cc1ccccc1)C(=O)NNC(=O)N[C@@H](CC(C)C)C(=O)N[C@@H](CCCNC(=N)NC)C(=O)N[C@@H](Cc1ccccc1)C(N)=O [Compound No. 277] (Hexanoyl-NSF[azaGly]L[Arg(Me)]F-NH2)', '0.054 µM'),
  ('CNC(N)=NCCC[C@H](NC(=O)[C@H](CC(C)C)NC(=O)NNC(=O)[C@H](Cc1ccccc1)NC(=O)[C@H](CO)NC(=O)[C@H](CC(N)=O)NC(=O)[C@H](CO)NC(=O)[C@H](N)Cc1ccc(O)cc1)C(=O)N[C@@H](Cc1ccccc1)C(N)=O [Compound No. 239] (H-[dY]SNSF[azaGly]L[Arg(Me)]F-NH2)', '0.12 µM'),
  ('CC(C)C[C@H](NC(=O)CNC(=O)[C@H](Cc1ccccc1)NC(=O)[C@H](CO)NC(=O)[C@H](CC(N)=O)NC(=O)[C@H](Cc1c[nH]c2ccccc12)NC(=O)[C@H](CC(N)=O)NC(=O)[C@H](N)Cc1ccc(O)cc1)C(=O)N[C@@H](CCCNC(=N)N)C(=O)N[C@@H](Cc1ccccc1)C(N)=S [Compound No. 146] (H-[dY]NWNSFGLR-X3)', '0.37 µM'),
  ('CNC(=N)NCCC[C@H](NC(=O)[C@H](CC(C)C)NC(=O)NNC(=O)[C@H](Cc1ccccc1)NC(=O)[C@H](CO)NC(=O)[C@H](CC(N)=O)NC(=O)C(c1ccccc1)c1ccccc1)C(=O)N[C@@H](Cc1ccccc1)C(N)=O [Compound No. 268] (Diphenylacetyl-NSF[azaGly]L[Arg(Me)]F-NH2)', '0.55 µM');

CC(C)C[C@H](NC(=O)CNC(=O)[C@H](Cc1ccccc1)NC(=O)[C@H](CO)NC(=O)[C@H](CC(N)=O)NC(=O)[C@H](Cc1c[nH]c2ccccc12)NC(=O)[C@H](CC(N)=O)NC(=O)[C@@H](N)Cc1ccc(O)cc1)C(=O)N[C@@H](CCCNC(=N)N)C(=O)N[C@@H](Cc1c[nH]c2ccccc12)C(N)=O [Compound No. 134] (H-YNWNSFGLRW-NH2) yielded IC50 of 0.11 µM

CC[C@H](C)[C@H](NC(=O)[C@H](N)Cc1ccc(O)cc1)C(=O)N[C@@H](CC(N)=O)C(=O)N[C@@H](CO)C(=O)N[C@@H](Cc1ccccc1)C(=O)NCC(=O)N[C@@H](CC(C)C)C(=O)N[C@@H](CCCNC(=N)NC)C(=O)N[C@@H](Cc1ccccc1)C(N)=O [Compound No. 228] (H-[dY]INSFGL[Arg(Me)]F-NH2) yielded IC50 of 0.04 µM

These entries and their values trace back to patent US8361968B2.
